molecular target: mP2X7R (full-length wild-type mouse P2X7 receptor) (Mus musculus, UniProt Q9Z1M0); construct: gene P2rx7; full-length wild-type homotrimer; untagged in Xenopus oocytes for TEVC; assay: calcium influx (Fluo-4), […]1 cells; assay type: cell-based; conditions: agonist BzATP at EC80; pH 7.4
EXPERIMENTAL READOUT: pIC50
// pIC50: -log10(molar conc.)

Report measured pIC50; entry is CC12CC3CC1(C)C1(C)CC3(C(=O)NNc3ccccc3Cl)CC21C
8.34

====

Molecular target: mP2X7R (full-length wild-type mouse P2X7 receptor) (Mus musculus)
Construct: gene P2rx7; full-length wild-type homotrimer; untagged in Xenopus oocytes for TEVC
Sequence (Q9Z1M0 1-595): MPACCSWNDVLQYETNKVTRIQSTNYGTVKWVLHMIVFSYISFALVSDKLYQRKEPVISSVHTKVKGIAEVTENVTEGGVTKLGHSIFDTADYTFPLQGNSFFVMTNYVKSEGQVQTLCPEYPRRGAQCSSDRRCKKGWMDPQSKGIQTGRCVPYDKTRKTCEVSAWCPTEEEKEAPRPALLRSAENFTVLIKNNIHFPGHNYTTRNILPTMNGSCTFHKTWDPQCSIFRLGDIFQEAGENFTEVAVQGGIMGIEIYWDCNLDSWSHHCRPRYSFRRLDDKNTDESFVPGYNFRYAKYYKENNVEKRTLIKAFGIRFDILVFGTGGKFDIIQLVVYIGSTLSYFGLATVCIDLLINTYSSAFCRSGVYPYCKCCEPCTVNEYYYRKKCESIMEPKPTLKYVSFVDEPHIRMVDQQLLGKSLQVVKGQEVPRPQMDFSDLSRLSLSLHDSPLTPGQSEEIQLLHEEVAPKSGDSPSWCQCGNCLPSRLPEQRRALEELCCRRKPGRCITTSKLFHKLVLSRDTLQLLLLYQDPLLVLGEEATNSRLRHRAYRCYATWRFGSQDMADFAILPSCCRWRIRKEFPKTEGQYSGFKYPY
Assay: calcium influx (Fluo-4), […]1 cells
Assay type: cell-based
EXPERIMENTAL READOUT: IC50 (nM)
The reply should contain only the number, in nM.

Look up and report measured IC50 for this entry: O=C(NNc1ccccc1Cl)C12CC3CC(CC(C3)C1)C2
150
